src = the RNAGym collection of RNA variant scans (doi:10.7554/elife.80360)

B1: HDV Ribozyme (parent)
chain: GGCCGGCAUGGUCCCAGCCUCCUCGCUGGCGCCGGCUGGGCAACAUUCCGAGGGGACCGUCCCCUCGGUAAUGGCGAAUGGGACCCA

# Variants of: B1
# assay explanation: self-cleavage, relative activity (ratio to wild type); higher = more cleavage; co-transcriptional
Measured self-cleavage accompanies every entry in the list below.

[
  {
    "variant spec": "U37A G80A",
    "self-cleavage": 0.145
  },
  {
    "variant spec": "C57A A71C",
    "self-cleavage": 0.866
  },
  {
    "variant spec": "G29A C36A",
    "self-cleavage": 0.0222
  },
  {
    "variant spec": "G17A A42C",
    "self-cleavage": 0.229
  },
  {
    "variant spec": "G55U U69G",
    "self-cleavage": 0.933
  },
  {
    "variant spec": "C13G A70G",
    "self-cleavage": 0.229
  },
  {
    "variant spec": "G11C A45C",
    "self-cleavage": 0.116
  },
  {
    "variant spec": "A42G A43C",
    "self-cleavage": 0.158
  },
  {
    "variant spec": "A45U G74A",
    "self-cleavage": 0.513
  },
  {
    "variant spec": "G5A G73C",
    "self-cleavage": 0.268
  },
  {
    "variant spec": "C41A G50U",
    "self-cleavage": 0.886
  },
  {
    "variant spec": "G29U A51U",
    "self-cleavage": 0.169
  },
  {
    "variant spec": "C21A A43C",
    "self-cleavage": 0.116
  },
  {
    "variant spec": "G28U G82U",
    "self-cleavage": 0.0468
  },
  {
    "variant spec": "U47G G50A",
    "self-cleavage": 0.957
  },
  {
    "variant spec": "C18A G50A",
    "self-cleavage": 0.23
  },
  {
    "variant spec": "G17A G76A",
    "self-cleavage": 0.787
  },
  {
    "variant spec": "G35C G68C",
    "self-cleavage": 0.356
  },
  {
    "variant spec": "C21U A83U",
    "self-cleavage": 0.162
  },
  {
    "variant spec": "G29U U69C",
    "self-cleavage": 0.128
  },
  {
    "variant spec": "C3A C62G",
    "self-cleavage": 0.0773
  },
  {
    "variant spec": "A8C G17C",
    "self-cleavage": 0
  }
]
